Experiment: qHTS assay for MDR1-selective chemotherapeutics: Primary screen using the drug-selected MDR subline cells KB-V1; further: nearly all actives have a fitted effect of over 60% in size
Conditions: KB-V1 MDR cells viability, CellTiter-Glo, 72 h; series mostly up to 46.1 µM
About 13,000 (3.2%) of roughly 400,000 compounds were called active. About 18% were inconclusive and are not listed. The call rests on the fitted dose curve; in most records, active means well fitted cell-killing curve with a large enough effect; inconclusive means small, poorly fitted or top-dose-only effect, or effect the other way; inactive means flat fitted curve, though single readings scatter. The list comes from a sample in which actives are over-represented; it also holds close analogues and randomly drawn compounds.
Outcomes: active, inactive

                                    compound  category_label
 0  Cc1ccc(-n2c(C)cc(/C=N/Nc3ccc([N+](=O)[O-])cn3)c2C)c(C)c1        inactive
 1    O=S(=O)(NCCc1csc(-c2ccccc2)n1)c1cccnc1        inactive
 2  Cc1cccc(COc2ccccc2/C=N/Nc2ccc([N+](=O)[O-])cc2)c1          active
 3  CCCCC(=O)N(C)c1c(CC)nc2c(OCc3ccc(Cl)cc3Cl)cccn12          active
 4  COc1cccc(C(NC(C)=O)c2nc(-c3cnc4ccccc4c3)cs2)c1 (configuration not stated)        inactive
 5  O=c1c2ccccc2nc2n1C(CSc1ccc(F)cc1)CN2 (configuration not stated)        inactive
 6  COc1cc(OC)cc(C(=O)Nc2cc3nn(-c4ccccc4)nc3cc2Cl)c1        inactive
 7  Cc1cc2nc(-c3ccc(Cl)cc3)c(Cc3cccc(F)c3)n2c(C)c1Br        inactive
 8  S=C(Nc1ccc(Br)cc1Cl)NC1CCN(Cc2ccccc2)CC1          active
 9  Cc1ccc(C(=O)Nc2ccc(C(=O)O)cc2)cc1S(=O)(=O)Nc1ccccc1        inactive
10  O=C(Nc1ccc(F)cc1)c1ccc(S(=O)(=O)NCc2cccnc2)cc1        inactive
11  COc1cc(C(C)=O)ccc1OC(C)C(=O)Nc1ccc(S(=O)(=O)N2CCCC2)cc1 (configuration not stated)        inactive
12  COc1ccc(-c2noc(CSc3nc4ccc(C)cc4[nH]3)n2)cc1        inactive
13   Cc1ccc(-c2noc(CSc3nnnn3-c3ccccc3)n2)cc1        inactive
14  Nc1[nH]c(C(=O)c2ccccc2)c(-c2ccncc2)c1C(=O)NCc1cccc2ccccc12        inactive
15  COc1ccccc1NC(=O)C(CC(=O)O)Cc1cc(C)cc(C)c1 (configuration not stated)        inactive
16  COc1ccc(S(=O)(=O)N[C@@H]2C=C[C@@H](CC(=O)N3CCc4ccccc4C3)O[C@@H]2CO)cc1        inactive
17  O=C(NCCCN1CCOCC1)C1CCCN(S(=O)(=O)N2CCCCC2)C1 (configuration not stated)        inactive
18  COc1cc(C(=O)NNC(=O)c2ccc(S(=O)(=O)N3CCCCC3)cc2)cc(OC)c1OC        inactive
19  CCc1ccc(-n2nc(C)c3c(C)cc(=O)n(CC(=O)Nc4ccc(F)cc4C)c32)cc1        inactive
20  Cn1cccc1Cc1nnc(SCC(=O)NCCc2ccccc2)n1-c1ccc(F)cc1        inactive
21  CC(=O)NC1=NN(C(C)=O)C(C)(c2ccc(C)cc2)S1 (configuration not stated)        inactive
22  COc1ccc(-c2csc(C(O)c3cccc(Cl)c3)n2)cn1 (configuration not stated)        inactive
23              COc1ccc(CNC(=O)CCn2cccc2)cc1        inactive
24  O=C(NCCN1CCOCC1)C1CCN(S(=O)(=O)c2ccccc2)CC1        inactive
25  COc1ccc(-c2ccc(Nc3ccc(S(=O)(=O)N4CCCC4)cc3)nn2)cc1OC          active
26  Cc1ccc(-c2noc(CSc3nnc(-c4ccncc4)n3-c3ccc(F)cc3)n2)cc1          active
27  N#Cc1c(-c2ccccc2)nc(SCc2cccc(C(F)(F)F)c2)[nH]c1=O        inactive
28  Cc1cccc(-c2cnc(C(O)c3ccc4ccccc4c3)[nH]2)c1 (configuration not stated)        inactive
29  Fc1ccc2[nH]c3c(N4CCN(Cc5ccc6c(c5)OCO6)CC4)ncnc3c2c1          active
30  O=C(CCn1ccc2cc(S(=O)(=O)N3CCCC3)ccc21)NCc1cccc(Cl)c1        inactive
31  OC(c1ccccc1)c1nc(-c2cnc3ccccc3c2)cs1 (configuration not stated)          active
32  COc1ccc(Br)cc1CN(C)CC(=O)Nc1cc(Cl)cc(Cl)c1          active
33  O=c1c2ccccc2nc2n1C(CSCc1cccc(C(F)(F)F)c1)CS2 (configuration not stated)          active
34  COc1ccc(Cl)cc1NC(=O)CCS(=O)(=O)c1ccc(Br)cc1        inactive
35  CC(OC(=O)c1ccc(NC(=O)CC#N)cc1)C(=O)Nc1ccc(S(=O)(=O)N2CCCC2)cc1 (configuration not stated)        inactive
36  Cc1ccc(Oc2cc(NC(=O)CCCn3nc(C)c([N+](=O)[O-])c3C)cc([N+](=O)[O-])c2)cc1          active
37  Cc1nn(CC(=O)Nc2ccc(N(C)C)cc2)c(C)c1[N+](=O)[O-]        inactive
38              O=C1OCCC1=COCCCCOC=C1CCOC1=O        inactive
39  CC(=O)NC1=NN(C(C)=O)C(C)(CCS(=O)(=O)c2ccc(Cl)c(Cl)c2)S1 (configuration not stated)        inactive
40  CCc1ccc(Sc2cc(C(=O)NCCCOC(C)C)c3ccccc3n2)cc1        inactive
41  COc1ccc(-c2nc(CCNC(=O)c3ccc(Br)o3)cs2)cc1        inactive
